- Test system: OVCAR-5
- Assay Comment: NCI tumour cell line growth inhibition, 48 h
Calls of active or inactive are those of the source. Rule as the data show it: active = GI50 up to about 1.1 µM and inactive = higher.
Respond with a class label; see active, inactive

# example entries with known answers
Nc1nc(=O)c2cc(NCc3ccc(C(=O)NC(CCC(=O)O)C(=O)O)cc3)ccc2[nH]1 (configuration not stated) = inactive
CC1=C2C(=O)C(C)(C)C=C2C(=O)[C@](C)(O)C12CC2 [DEHYDROILLUDIN M] = active
Cn1c(=O)c2sc3cc4c(cc3c2c2ccccc21)sc1c(=O)n(C)c2ccccc2c14 = inactive

Now for a further compound.
QUERY: Status in this test for CCC(=O)C1(c2ccccc2)CCN(C)CC1 ?
RESULT: inactive

---

- Test system: DMS-114
- Assay Comment: NCI tumour cell line growth inhibition, 48 h
Activity calls are given as the source filed them. Cut-off read from the data, not from the text of the source: active = GI50 up to about 1.1 µM and inactive = higher.
Measured Attribute: GI50

Worked cases, answers included:
CCCN(CCCC(NC(C)=O)C(=O)NCc1ccccc1)C(=O)NCCCl (centres undefined) = > 100 µM (inactive)
COc1cc2c(cc1OC)C(CC(=O)NN=C(C)C)NCC2 (centres undefined) = > 100 µM (inactive)
CCCNC1=C(C(=O)OCC)C(=O)CO1 = > 100 µM (inactive)
COC(=O)C(=Cc1cc(OC)c(OC)c(OC)c1-c1cc2c(cc1C(C)=O)OCO2)C(=O)OC = 37.5 µM (inactive)

Give GI50 for each of the items listed below.
1. [O-][n+]1c2cc(CBr)c(CBr)cc2[n+]([O-])c2c(O)cccc21
2. O=[N+]([O-])c1ccc(C2CC(c3ccccc3Cl)=Nc3ccccc3S2)cc1 (centres undefined)
3. COc1ccccc1NC(=O)CC(=O)n1nc(C)c(/N=N/c2ccccc2F)c1C

RESULT:
1. 1.69 µM (inactive)
2. 2.19 µM (inactive)
3. > 100 µM (inactive)

Give GI50 for each of the items listed below.
1. CNC(N)NC
2. CC(=O)Oc1cc2c(cc1OC(C)=O)OCC(c1ccc(C)cc1)C2 (centres undefined)

RESULT:
1: > 100 µM (inactive); 2: 4.94 µM (inactive)

---

- Tested on: SF-295
- Assay Comment: NCI tumour cell line growth inhibition, 48 h
Calls of active or inactive are those of the source. Cut-off read from the data, not from the text of the source: active = GI50 up to about 1.1 µM and inactive = higher. Non-standard residues stand in square brackets, D forms with d. Residues, ends and D or L forms follow the SMILES beside them. ΔPro = O=C(O)[CH]1C=CCN1
Respond with a class label; see active, inactive

# example entries with known answers
O=c1c2cc([N+](=O)[O-])cnc2sn1-c1ccc(Oc2ccccc2)cc1 = inactive
CC(NC(=O)C(CC(=O)OCc1ccccc1)NC(=O)OCc1ccccc1)c1ccccc1 (stereo not drawn) = inactive
CSc1nc2c3ccccc3ccn2c1C(=O)N/N=C/c1ccccc1 = inactive
N#CCCN(CCC#N)c1ccc(/C=C(/NC(=O)c2cc([N+](=O)[O-])ccc2Cl)C(=O)N=[N+]=[N-])cc1 = inactive

QUERY: Status in this test for O=C(Cc1cc[n+]([O-])cc1)C(=O)Nc1cc(Cl)c(Cl)cc1Cl ?
RESULT: inactive

QUERY: Status in this test for O=C1C(/N=N/c2ccc(-c3nc4ccccc4[nH]3)cc2)NC(=S)N1c1ccccc1 (stereo not drawn) ?
RESULT: inactive

QUERY: Status in this test for O=C(O)C1C=CCN1C(=O)C1C=CCN1C(=O)C1C=CCN1 (stereo not drawn) (H-[ΔPro]-[ΔPro]-[ΔPro]-OH; configuration not given here) ?
RESULT: inactive

QUERY: Status in this test for COc1ccc(NC(=O)CSC(=O)c2ccccc2)c(SCCSSCCSc2cc(OC)ccc2NC(=O)CSC(=O)c2ccccc2)c1 ?
RESULT: inactive

QUERY: Status in this test for C=CC(=O)N1C/C(=C\c2ccc(F)cc2)C(=O)/C(=C/c2ccc(F)cc2)C1 ?
RESULT: active
